Biological target: human TAS1R2-P21L/TAS1R3-WT (Homo sapiens, UniProt Q7RTX0+Q8TE23, P21L)
Construct: expressed in transfected cells; host or cells: HEK293T-Gα16gust44
Sequence (Q8TE23 20-839 P21L): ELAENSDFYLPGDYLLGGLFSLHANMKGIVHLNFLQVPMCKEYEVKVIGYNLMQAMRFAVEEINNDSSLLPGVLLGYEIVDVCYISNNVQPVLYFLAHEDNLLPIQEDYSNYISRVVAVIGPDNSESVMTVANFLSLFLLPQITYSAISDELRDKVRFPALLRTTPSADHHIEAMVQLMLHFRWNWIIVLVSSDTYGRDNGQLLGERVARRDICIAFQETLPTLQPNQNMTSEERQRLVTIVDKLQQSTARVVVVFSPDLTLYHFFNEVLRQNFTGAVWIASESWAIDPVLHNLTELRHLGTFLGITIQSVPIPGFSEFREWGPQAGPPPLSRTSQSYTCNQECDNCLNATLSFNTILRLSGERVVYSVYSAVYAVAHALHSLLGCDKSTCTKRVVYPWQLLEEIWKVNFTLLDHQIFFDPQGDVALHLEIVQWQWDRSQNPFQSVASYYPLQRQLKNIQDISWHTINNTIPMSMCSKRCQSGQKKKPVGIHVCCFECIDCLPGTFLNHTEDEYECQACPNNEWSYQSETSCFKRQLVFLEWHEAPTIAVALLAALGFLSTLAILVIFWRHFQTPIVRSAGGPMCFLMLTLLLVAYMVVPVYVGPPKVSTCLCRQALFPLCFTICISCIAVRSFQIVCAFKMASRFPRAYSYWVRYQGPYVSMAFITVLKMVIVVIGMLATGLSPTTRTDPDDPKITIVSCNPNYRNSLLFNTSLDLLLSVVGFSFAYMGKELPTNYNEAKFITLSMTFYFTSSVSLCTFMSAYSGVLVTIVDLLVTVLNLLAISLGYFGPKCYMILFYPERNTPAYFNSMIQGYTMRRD
Sequence (Q7RTX0 21-852): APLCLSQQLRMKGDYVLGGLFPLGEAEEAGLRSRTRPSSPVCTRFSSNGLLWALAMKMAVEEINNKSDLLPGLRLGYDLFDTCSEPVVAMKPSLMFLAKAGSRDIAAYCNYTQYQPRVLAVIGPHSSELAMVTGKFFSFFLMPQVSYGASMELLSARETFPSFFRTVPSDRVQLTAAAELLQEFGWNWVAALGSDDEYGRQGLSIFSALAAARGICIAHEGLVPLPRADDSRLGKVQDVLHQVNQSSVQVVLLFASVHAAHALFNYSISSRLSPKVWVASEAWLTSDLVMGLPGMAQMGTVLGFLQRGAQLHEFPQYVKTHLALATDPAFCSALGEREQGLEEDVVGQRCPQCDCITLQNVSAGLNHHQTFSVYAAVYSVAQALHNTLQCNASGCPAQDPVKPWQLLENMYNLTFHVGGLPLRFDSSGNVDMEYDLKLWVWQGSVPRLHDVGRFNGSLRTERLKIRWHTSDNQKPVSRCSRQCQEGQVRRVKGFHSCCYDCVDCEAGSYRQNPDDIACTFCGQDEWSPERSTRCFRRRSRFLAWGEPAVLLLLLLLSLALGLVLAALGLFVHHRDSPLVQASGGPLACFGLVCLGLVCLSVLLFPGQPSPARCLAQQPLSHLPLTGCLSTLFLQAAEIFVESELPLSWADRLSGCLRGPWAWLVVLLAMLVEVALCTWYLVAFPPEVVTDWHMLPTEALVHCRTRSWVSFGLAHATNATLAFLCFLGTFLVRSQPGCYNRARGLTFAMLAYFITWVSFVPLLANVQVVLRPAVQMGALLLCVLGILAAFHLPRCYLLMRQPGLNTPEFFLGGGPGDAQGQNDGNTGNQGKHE
Assay: Calcium mobilisation assay, TAS1R2 variant P21L with TAS1R3-WT
Type: cell-based
READOUT NAME: R1 = Variant EC50/WT EC50

Solved entries (count: 3):
{"columns": ["COMPOUND", "R1 = Variant EC50/WT EC50"],
 "data": [
  ["CC1=CC(=O)NS(=O)(=O)O1", 0.5],
  ["COC(=O)[C@H](Cc1ccccc1)NC(=O)[C@H](CC(=O)O)NCCC(C)(C)C", 0.8],
  ["C=C1C[C@@]23CC[C@H]4[C@@](C)(CCC[C@@]4(C)C(=O)O[C@@H]4O[C@H](CO)[C@@H](O)[C@H](O[C@@H]5O[C@H](CO)[C@@H](O)[C@H](O)[C@H]5O)[C@H]4O[C@@H]4O[C@H](CO)[C@@H](O)[C@H](O)[C@H]4O)[C@@H]2CC[C@]1(O[C@@H]1O[C@H](CO)[C@@H](O)[C@H](O[C@@H]2O[C@H](CO)[C@@H](O)[C@H](O)[C@H]2O)[C@H]1O[C@@H]1O[C@H](CO)[C@@H](O)[C@H](O)[C@H]1O)C3 [Rebaudioside M, rebaudioside M]", 1.2]
]}

(A) COc1ccc(CCC(=O)c2c(O)cc(O[C@@H]3O[C@H](CO)[C@@H](O)[C@H](O)[C@H]3O[C@@H]3O[C@@H](C)[C@H](O)[C@@H](O)[C@H]3O)cc2O)cc1O [NHDC, neohesperidin dihydrochalcone]
(B) OC[C@H]1O[C@H](O[C@]2(CCl)O[C@H](CCl)[C@@H](O)[C@@H]2O)[C@H](O)[C@@H](O)[C@H]1Cl
Quick one: lower R1 = Variant EC50/WT EC50, A or B ? Your answer should be the label of the entry you select.
B

All figures here come from paper PMC11945486.
